# Target: aromatase (Homo sapiens)
# Assay Overview: biochemical
# Test Parameters: read-out: IC50-values (concentration of the compound required to obtain 50% inhibition of the estrogen synthesis)
Readout Kind: IC50 (nM)
// units = nM; emit number, no label

-- ask Given Clc1ccc(C(c2ccc3nnn(-c4ccccc4)c3c2)n2ccnc2)cc1.O=[N+]([O-])O (stereo not shown) [mononitrate] , respond with its IC50.
-- reply 17.6

###

# Target: aromatase (Homo sapiens, UniProt P11511)
# Sequence (P11511 whole entry): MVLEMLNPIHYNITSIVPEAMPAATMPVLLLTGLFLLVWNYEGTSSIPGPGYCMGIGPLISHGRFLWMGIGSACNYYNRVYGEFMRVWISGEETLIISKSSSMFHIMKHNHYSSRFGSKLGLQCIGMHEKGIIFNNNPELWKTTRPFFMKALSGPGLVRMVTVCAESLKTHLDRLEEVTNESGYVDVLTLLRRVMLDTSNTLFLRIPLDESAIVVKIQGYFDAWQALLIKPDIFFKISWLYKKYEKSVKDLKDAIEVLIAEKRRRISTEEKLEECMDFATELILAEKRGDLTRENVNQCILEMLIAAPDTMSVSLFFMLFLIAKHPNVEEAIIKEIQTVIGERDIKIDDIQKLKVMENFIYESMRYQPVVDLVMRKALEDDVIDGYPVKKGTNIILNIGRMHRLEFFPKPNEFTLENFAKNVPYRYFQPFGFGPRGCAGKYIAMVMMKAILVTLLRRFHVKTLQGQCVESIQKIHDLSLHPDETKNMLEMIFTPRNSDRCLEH
# Assay Overview: biochemical
# Test Parameters: human placental microsomes, 30 min at 37° C., pH 7.4, 1,2[3H]androstenedione; read-out: IC50-values (concentration of the compound required to obtain 50% inhibition of the estrogen synthesis)
# Protocol: Human placental microsomes were diluted in potassium phosphate buffer (0.1M, pH 7.4) to give about 50% conversion of androgens to estrogens (protein content: about 0.5 mg). Four ml human placental microsomes were incubated in a final volume of 5 ml with 0.2 μCi1,2[3H]-androstenedione, 2 μg androstendione and 5 μl of test compound and/or dimethyl sulfoxide (DMSO). […] The reaction was initiated by the addition of androstenedione and proceeded for 30 min at 37° C. […]
Readout Kind: IC50 (nM)
// units = nM; emit number, no label

-- ask Given Cn1nnc2ccc(C(c3ccc(Cl)cc3)n3ccnc3)cc21 (centres unmarked) [Compound 30] , respond with its IC50.
-- reply 22.2

-- ask Given CC(C)n1nnc2ccc(C(c3ccc(Cl)cc3)n3ccnc3)cc21 (centres unmarked) [Compound 116] , respond with its IC50.
-- reply 24.9

-- ask Given Fc1ccc(C(c2ccc3[nH]nnc3c2)n2ccnc2)cc1 (centres unmarked) [Compound 113] , respond with its IC50.
-- reply 18.8

-- ask Given Fc1cccc(Cn2nnc3ccc(Cn4ccnc4)cc32)c1 [Compound 99] , respond with its IC50.
-- reply 17.8

-- ask Given COc1ccc(C(c2ccc3nnn(C)c3c2)n2ccnc2)cc1 (centres unmarked) [Compound 59] , respond with its IC50.
-- reply 18

Each recorded value in this set is attributed to patent US4943574A.
